// data source = the supplement of paper PMC11451515

Here, each record is paired with measured cell viability data.
# Tested on: SEM cells
# protocol summary: cell viability relative to DMSO control; higher = less cytotoxic
# conditions: HPLM + 10% dialyzed FBS; 48 h; 0.0632 µM
measure: cell viability (%)

{"columns": ["smiles notation", "test target", "measure", "data value"],
 "data": [
  ["CCOC(=O)c1ccc(C#Cc2ccc3c(c2)C(C)(C)CCS3)nc1", "SEM cells", "cell viability", 111],
  ["CCCCCCCCCCCCCCCC(=O)OC[C@@H](NC(=O)C(Cl)Cl)[C@H](O)c1ccc([N+](=O)[O-])cc1", "SEM cells", "cell viability", 121],
  ["CC1=C2N=C([NH]C2=CC(=C1)N3CCOCC3)\\C4=C(NC[C@@H](O)C5=CC=CC(=C5)Cl)\\C=C/NC4=O", "SEM cells", "cell viability", 82.8],
  ["COC1=C(OC)C(=O)C(C/C=C(\\C)CC/C=C(\\C)CC/C=C(\\C)CC/C=C(\\C)CC/C=C(\\C)CC/C=C(\\C)CC/C=C(\\C)CC/C=C(\\C)CC/C=C(\\C)CCC=C(C)C)=C(C)C1=O", "SEM cells", "cell viability", 129],
  ["Cl.Cl.Fc1ccc(C(OCCN2CCN(CCCc3ccccc3)CC2)c2ccc(F)cc2)cc1", "SEM cells", "cell viability", 104],
  ["Cn1cc(-c2ccc3ncc(Cc4ccc5ncccc5c4)n3n2)cn1", "SEM cells", "cell viability", 101],
  ["COc1ccc2cccc(CCNC(C)=O)c2c1", "SEM cells", "cell viability", 109],
  ["NC12CC3CC(CC(C3)C1)C2", "SEM cells", "cell viability", 125],
  ["CC1=CC2=C(O1)C(=C3OC(=O)\\C=C(C)/C3=C2)C", "SEM cells", "cell viability", 84]
]}

====

# Test system: NOMO1
# protocol summary: cell viability relative to DMSO control; higher = less cytotoxic
# conditions: RPMI 5 mM glucose + 10% FBS; 48 h; 0.0632 µM

{"columns": ["compound", "unit name", "cell viability"],
 "data": [
  ["Cn1cc(-c2ccc3ncc(Cc4ccc5ncccc5c4)n3n2)cn1", "%", 115],
  ["COC(=O)N[C@H](C(=O)N[C@@H](Cc1ccccc1)[C@@H](O)CN(Cc1ccc(-c2ccccn2)cc1)NC(=O)[C@@H](NC(=O)OC)C(C)(C)C)C(C)(C)C", "%", 106],
  ["CC(Oc1ccc(O)cc1)(P(=O)(O)O)P(=O)(O)O", "%", 94.8],
  ["COc1ccc([C@@H]2CNC(=O)C2)cc1OC1CCCC1", "%", 114],
  ["C[C@H]1CCC/C=C/C2C[C@H](O)C[C@H]2[C@H](O)/C=C/C(=O)O1 (stereo partly drawn)", "%", 5.07],
  ["C=C1C[C@@]2(O)O[C@@]3(C[C@H]2C(C)C)[C@@H](C)CC[C@@H]13", "%", 136],
  ["CNC(=O)c1c(F)cccc1Nc1nc(Nc2cc3c(cc2OC)CCN3C(=O)CN(C)C)nc2[nH]ccc12", "%", 112],
  ["CN(C(=O)c1ccc(F)cc1C(F)(F)F)C1CCN(c2nnc(-c3ccnn3C)c3ccccc23)CC1", "%", 82.3],
  ["CN1[C@@H]2CC(O)C[C@H]1[C@@H]1O[C@@H]12 (stereo partly drawn)", "%", 113],
  ["C[C@@]12OC(=O)[C@@]1(NC(=O)[C@@H]2CCCl)[C@@H](O)[C@H]\\3CCC\\C=C3", "%", 100],
  ["CCc1cc(/C(C)=N/OCc2ccc(C3CCCCC3)c(C(F)(F)F)c2)ccc1CN1CC(C(=O)O)C1", "%", 135],
  ["CO[C@@H]1[C@H](N(C)C(=O)c2ccccc2)C[C@H]2O[C@]1(C)n1c3ccccc3c3c4c(c5c6ccccc6n2c5c31)C(=O)NC4", "%", 121],
  ["CCOP(=O)(OCC)C(C)NC(=O)N(CCCl)N=O (stereo not drawn)", "%", 121],
  ["CN(C)CCC=C1C2=C(C=CC=C2)\\C=C/C3=C1C=CC=C3", "%", 95.9],
  ["Cc1ccccc1C(C(=O)NC1CCCCC1)N(C(=O)CNc1ccc(C#N)cc1)c1cccc(F)c1 (stereo not drawn)", "%", 103],
  ["NC12CC3CC(CC(C3)C1)C2", "%", 97],
  ["CC(C)(O)CNc1nc(Nc2ccnc(C(F)(F)F)c2)nc(-c2cccc(C(F)(F)F)n2)n1", "%", 118],
  ["CN1C(=O)COc2c(C(=O)NC3CN4CCC3CC4)cc(Cl)cc21 (stereo not drawn)", "%", 110]
]}
